# Test system: U2OS
# test-description: Multiplex assay against U2OS
# Type: toxicity, cell-based
# details: human, 48 h, 10 µM, compound concentration 10 uM, replicate 1
assay-metric: Population Normal (%)

COc1ccc2[nH]c(I)c(CCNC(C)=O)c2c1    97
Cl.Cl.OCCOCCN1CCN(C(c2ccccc2)c2ccc(Cl)cc2)CC1 (stereo not given) [HYDROXYZINE HYDROCHLORIDE]    97
S=C(NCCCc1c[nH]cn1)NCCCN(Cc1ccc(Cl)c(Cl)c1)c1ccc(Br)cn1    78
Cn1cc(C(=O)OCC2CCN(CCNS(C)(=O)=O)CC2)c2ccccc21    98
CN1CCN(c2ccc(Nc3c4ccccc4nc4ccccc34)cc2)CC1.Cl.Cl.O    81
